# assay_target: DLL3 endogenously expressed on NCI-H82 cells (UniProt Q9NYJ7)
# Sequence (Q9NYJ7 27-618): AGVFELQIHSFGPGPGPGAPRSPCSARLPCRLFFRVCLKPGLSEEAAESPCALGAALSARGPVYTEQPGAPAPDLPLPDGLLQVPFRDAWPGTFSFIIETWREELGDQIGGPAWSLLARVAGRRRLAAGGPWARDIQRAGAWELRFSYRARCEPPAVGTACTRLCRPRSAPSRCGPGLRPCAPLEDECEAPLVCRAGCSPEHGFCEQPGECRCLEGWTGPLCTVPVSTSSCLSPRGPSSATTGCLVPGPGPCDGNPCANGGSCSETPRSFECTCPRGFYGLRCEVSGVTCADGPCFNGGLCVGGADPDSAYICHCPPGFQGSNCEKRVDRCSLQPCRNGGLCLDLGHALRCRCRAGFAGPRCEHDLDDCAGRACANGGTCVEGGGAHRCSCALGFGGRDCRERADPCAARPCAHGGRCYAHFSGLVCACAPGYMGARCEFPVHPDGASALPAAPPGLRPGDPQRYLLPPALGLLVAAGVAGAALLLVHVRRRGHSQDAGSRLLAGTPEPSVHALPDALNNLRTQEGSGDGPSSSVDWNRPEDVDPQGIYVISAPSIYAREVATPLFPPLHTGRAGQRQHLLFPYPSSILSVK
# test_name: FACS on NCI-H82 cells; antibody 0.00128 nM
# MFI annotations
In your answer, state the number alone without any accompanying words.

See these solved cases before continuing.
[
  {
    "binder": "Hab006VL4VH2-hFc (Fc fusion, part only; not given: Linker and human IgG1 Fc, not shown: a dimerising Fc or GST) chain, part: DIVMTQSPDSLAVSLGERATINCRATKSISKYLAWYQQKPGQTNKLLIFSGSTLQSGVPDRFSGSGSGTDFTLTISSLQAEDVAVYYCQQHHEYPYTFGGGTKVEIKEVQLVQSGAEVKKPGASVKVSCKASGYTFTSYWMHWVRQAPGQRLEWMGVIDPSDSLANYNQEFKGRVTLTVDTSASTAYMELSSLRSEDTAVYYCARDSTVVAPMDYWGQGTTVTVSS",
    "meas_value": 117
  },
  {
    "binder": "Hab015VL4VH1b-hFc (scFv, part only; not given: VL-VH linker and human IgG1 Fc, V domains shown, not shown: another chain or arm of the molecule; a dimerising Fc or GST; small tags and cut ends) VL: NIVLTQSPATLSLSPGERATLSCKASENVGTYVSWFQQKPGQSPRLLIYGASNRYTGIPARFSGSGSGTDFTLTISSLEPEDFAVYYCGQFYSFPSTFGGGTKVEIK VH: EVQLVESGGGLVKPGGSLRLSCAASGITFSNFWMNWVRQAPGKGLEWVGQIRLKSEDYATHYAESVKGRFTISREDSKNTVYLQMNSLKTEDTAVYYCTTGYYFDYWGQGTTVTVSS",
    "meas_value": 114
  }
]

Input line: I am curious: what MFI value has been reported for Hab008L1H5-hFc (scFv, part only; not given: VL-VH linker and human IgG1 Fc, V domains shown, not shown: another chain or arm of the molecule; a dimerising Fc or GST; small tags and cut ends) VL: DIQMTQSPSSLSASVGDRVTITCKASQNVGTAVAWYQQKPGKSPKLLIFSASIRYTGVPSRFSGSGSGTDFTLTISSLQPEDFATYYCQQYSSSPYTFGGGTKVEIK VH: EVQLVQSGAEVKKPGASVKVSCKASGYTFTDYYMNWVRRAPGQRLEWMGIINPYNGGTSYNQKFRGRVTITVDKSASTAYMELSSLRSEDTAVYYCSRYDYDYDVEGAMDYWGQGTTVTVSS ?
Output line: 102
